Tested on: heterosexual men suffering from primary premature ejaculation
Settings: male, human, in vivo, po, 4 weeks
property.measured: patients with side effects (%)
One number for each entry, in %.

molecule: CCCc1nn(C)c2c(=O)[nH]c(-c3cc(S(=O)(=O)N4CCN(C)CC4)ccc3OCC)nc12 [Sildenafil]
readout.unit: %
patients with side effects (%): 17.9
//
molecule: Fc1ccc([C@@H]2CCNC[C@H]2COc2ccc3c(c2)OCO3)cc1 [Paroxetine, paroxetine]
readout.unit: %
patients with side effects (%): 17.2
//
molecule: CN[C@H]1CC[C@@H](c2ccc(Cl)c(Cl)c2)c2ccccc21 [Sertraline, sertraline]
readout.unit: %
patients with side effects (%): 10.3

Now look at this one.
Inquiry: Give heterosexual men suffering from primary premature ejaculation patients with side effects (%) for the following molecule: CN(C)CCCN1c2ccccc2CCc2ccc(Cl)cc21 [Clomipramine, clomipramine]
Reply text: 25

----------
System: heterosexual men suffering from primary premature ejaculation
Conditions: male, human, in vivo, po, 4 weeks
property.measured: No. patients with side effects
Numbers only.

entry.smiles: Fc1ccc([C@@H]2CCNC[C@H]2COc2ccc3c(c2)OCO3)cc1
property.measured: No. patients with side effects
reported.value: 5
--
entry.smiles: CCCc1nn(C)c2c(=O)[nH]c(-c3cc(S(=O)(=O)N4CCN(C)CC4)ccc3OCC)nc12
property.measured: No. patients with side effects
reported.value: 5
--
entry.smiles: CN(C)CCCN1c2ccccc2CCc2ccc(Cl)cc21
property.measured: No. patients with side effects
reported.value: 7

Now look at this one.
Inquiry: # return recorded No. patients with side effects for entry CN[C@H]1CC[C@@H](c2ccc(Cl)c(Cl)c2)c2ccccc21
Reply text: 3

----------
Tested on: heterosexual men suffering from primary premature ejaculation
Assay: Double-blind randomized crossover study of orally administered active agents in treating premature ejaculation (efficacy measures)
Type: in vivo
Details: first nine items of EDITS questionnaire, higher scores = greater satisfaction; after four-week treatment
Provide the reported Sexual satisfaction score, Median of each item.
Give bare numbers.

Use these answered entries as a reference point.
entry.smiles: CCCc1nn(C)c2c(=O)[nH]c(-c3cc(S(=O)(=O)N4CCN(C)CC4)ccc3OCC)nc12
property.measured: Sexual satisfaction score, Median
reported.value: 30
//
entry.smiles: Fc1ccc([C@@H]2CCNC[C@H]2COc2ccc3c(c2)OCO3)cc1
property.measured: Sexual satisfaction score, Median
reported.value: 12
//
entry.smiles: CN[C@H]1CC[C@@H](c2ccc(Cl)c(Cl)c2)c2ccccc21
property.measured: Sexual satisfaction score, Median
reported.value: 10

Now look at this one.
Inquiry: # return recorded Sexual satisfaction score, Median for entry CN(C)CCCN1c2ccccc2CCc2ccc(Cl)cc21
Reply text: 11

----------
System: heterosexual men suffering from primary premature ejaculation
Experiment: Double-blind randomized crossover study of orally administered active agents in treating premature ejaculation (efficacy measures)
Assay type: in vivo
Conditions: two-week washout period after the treatment
Provide the reported IVELT during washout periods, Median of each item.
Record the result as a number with its unit.

Use these answered entries as a reference point.
entry.smiles: CCCc1nn(C)c2c(=O)[nH]c(-c3cc(S(=O)(=O)N4CCN(C)CC4)ccc3OCC)nc12
system.tested: heterosexual men suffering from primary premature ejaculation
IVELT during washout periods, Median: 1.75 min
--
entry.smiles: Fc1ccc([C@@H]2CCNC[C@H]2COc2ccc3c(c2)OCO3)cc1
system.tested: heterosexual men suffering from primary premature ejaculation
IVELT during washout periods, Median: 1 min
--
entry.smiles: CN(C)CCCN1c2ccccc2CCc2ccc(Cl)cc21
system.tested: heterosexual men suffering from primary premature ejaculation
IVELT during washout periods, Median: 1 min

Inquiry: # return recorded IVELT during washout periods, Median for entry CN[C@H]1CC[C@@H](c2ccc(Cl)c(Cl)c2)c2ccccc21
Reply text: 1 min

----------
System: heterosexual men suffering from primary premature ejaculation
Experiment: Double-blind randomized crossover study of orally administered active agents in treating premature ejaculation (efficacy measures)
Assay type: in vivo
Details: two-week washout period after the treatment
Method: A double-blind randomized crossover study was performed with 31 heterosexual men suffering from primary premature ejaculation, defined for the purpose of the study as an intravaginal ejaculation latency time (IVELT) of less than 2 minutes. […] Statistical analysis: The variables in this study were statistically processed using the SPSS program for MicroSoft Windows®, standard version, release 8.0. […] The relationship between parameters was quantified by using the Spearman rank correlation coefficient. […]

entry.smiles: Fc1ccc([C@@H]2CCNC[C@H]2COc2ccc3c(c2)OCO3)cc1
IVELT during washout periods, Range: (0.5-2) min
//
entry.smiles: CN[C@H]1CC[C@@H](c2ccc(Cl)c(Cl)c2)c2ccccc21
IVELT during washout periods, Range: (0.5-2) min
